experiment: Toxicity in mouse assessed as overt effects; type: organism-based; conditions: in vivo
readout.kind: LD50 (mg/kg)
Kindly provide the numeric value in mg/kg only, without the unit symbol.

Consider the following illustrative entries.
CCCOc1c(Cl)c(Cl)c(C#N)c(Cl)c1C#N | 178
CCC(=O)Oc1c(Cl)c(Cl)c(C#N)c(Cl)c1C#N | 178
N#Cc1ccc(Br)c(C#N)c1 | 178
CC(C)CCC(=O)Oc1c(Cl)c(Cl)c(C#N)c(Cl)c1C#N | 56
N#Cc1c(Cl)c(C#N)c(Nc2cccc(Cl)c2)c(C#N)c1Cl | 178

Field: next compound
The value of LD50 measured for the compound N#Cc1cc(F)c(C#N)cc1F turned out to be 56

====

Catalogue of compounds with associated Activity
test system: Rattus norvegicus; assay: Antiinflammatory activity in Long Evans rat assessed as reduction of carrageenan-induced pedal edema at 40 mg/kg, po administered 1 hr prior to carrageenan challenge measured after 3 hrs relative to control; type: functional; parameters: scale not given: the % may be the effect or the level left
Kindly provide the numeric value in % only, without the unit symbol.

The value of Activity measured for the compound N#Cc1c(Cl)c(C#N)c(Nc2cccc(F)c2)c(C#N)c1Cl turned out to be 0

The value of Activity measured for the compound N#Cc1c(F)c(F)c(C#N)c(Cl)c1F turned out to be 86

====

assay: Toxicity in mouse assessed as overt effects; type: organism-based; conditions: in vivo
readout.kind: LD50 (mg/kg)
Kindly provide the numeric value in mg/kg only, without the unit symbol.

N#Cc1c(Cl)c(C#N)c(Nc2cccc(F)c2)c(C#N)c1Cl | 56
CCCCCCS(=O)(=O)c1c(Cl)c(Cl)c(C#N)c(Cl)c1Cl | 178
CCCCOc1c(Cl)c(Cl)c(C#N)c(Cl)c1C#N | 178
N#Cc1c(F)c(F)c(C#N)c(F)c1F | 56
N#Cc1c(Cl)c(C#N)c(Nc2ccc(Cl)c(Cl)c2)c(C#N)c1Cl | 56

The value of LD50 measured for the molecule CCNc1c(F)c(C#N)c(F)c(F)c1C#N turned out to be 237

The value of LD50 measured for the molecule CCOCCS(=O)(=O)c1c(Cl)c(Cl)c(C#N)c(Cl)c1Cl turned out to be 237

The value of LD50 measured for the molecule CCCCCCCC(=O)Oc1c(Cl)c(Cl)c(C#N)c(Cl)c1C#N turned out to be 178

The value of LD50 measured for the molecule CC(=O)Oc1c(Cl)c(Cl)c(C#N)c(Cl)c1C#N turned out to be 237

The value of LD50 measured for the molecule N#Cc1c(F)c(F)c(C#N)c(Cl)c1F turned out to be 40

The value of LD50 measured for the molecule Cc1ccc(Nc2c(C#N)c(Cl)c(C#N)c(Cl)c2C#N)c(C)c1 turned out to be 56

The value of LD50 measured for the molecule N#Cc1c(Cl)c(C#N)c(Nc2ccc(N)cc2)c(C#N)c1Cl turned out to be 133

The value of LD50 measured for the molecule N#CCCS(=O)(=O)c1c(Cl)c(Cl)c(C#N)c(Cl)c1Cl turned out to be 56

The value of LD50 measured for the molecule CNC(=O)Oc1c(Cl)c(Cl)c(C#N)c(Cl)c1C#N turned out to be 178

====

assay: Toxicity in mouse assessed as overt effects; assay type: organism-based; conditions: in vivo
readout.kind: LD50 (mg/kg)
Kindly provide the numeric value in mg/kg only, without the unit symbol.

N#Cc1c(Cl)c(C#N)c(Nc2cccc(C(F)(F)F)c2)c(C#N)c1Cl | 237

The value of LD50 measured for the molecule N#Cc1c(Cl)c(Cl)c(S(=O)(=O)CCCc2ccccc2)c(Cl)c1Cl turned out to be 300

The value of LD50 measured for the molecule N#Cc1c(O)c(Cl)c(Cl)c(C#N)c1Cl turned out to be 178
